target: KRas G12C (Homo sapiens, UniProt P01116, G12C); construct: NCI-H358 cells (ATCC CRL-5807) express KRas G12C; experiment: Inhibition of KRas G12C in NCI-H358 cells measured by phosphorylated ERK (Phospho-ERK); conditions: pERK(Thr202/Tyr204) signal normalized with GAPDH, percent of DMSO control, 3 hours compound treatment
Sequence (P01116 1-188 isoform P01116-2 G12C): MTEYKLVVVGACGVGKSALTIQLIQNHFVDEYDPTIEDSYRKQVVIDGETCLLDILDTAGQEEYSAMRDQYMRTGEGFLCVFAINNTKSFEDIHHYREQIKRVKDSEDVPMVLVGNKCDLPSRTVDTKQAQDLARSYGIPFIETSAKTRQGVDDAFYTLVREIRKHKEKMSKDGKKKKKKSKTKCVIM
quantity: IC50

query: // IC50 lookup, key: C=CC(=O)N1CCN(c2nc(OC[C@@H]3CCCN3C)nc3c2CCCN(c2ccccc2CO)C3)C[C@@H]1CC#N
result: > 500 nM

query: // IC50 lookup, key: C=CC(=O)N1CCN(c2nc(OC[C@@H]3CCCN3C)nc3c2CCCN(c2c(C)cccc2F)C3)C[C@@H]1CC#N
result: ≤ 500 nM

----------
target: KRas G12C (Homo sapiens, UniProt P01116, G12C); construct: NCI-H358 cells (ATCC CRL-5807) express KRas G12C; experiment: Inhibition of KRas G12C in NCI-H358 cells measured by phosphorylated ERK (Phospho-ERK); conditions: pERK(Thr202/Tyr204) signal normalized with GAPDH, percent of DMSO control, 3 hours compound treatment
quantity: IC50

Recorded IC50, per entry:
1. C=C(F)C(=O)N1CCN(c2nc(OC[C@@H]3CCCN3C)nc3c2CCCN(c2cccc4ccccc24)C3)C[C@@H]1CC#N [Example 22] = > 500 nM
2. C=CC(=O)N1CCN(c2ncnc3c2CCCN(c2cccc4cccc(C)c24)C3)C[C@@H]1CC#N [Example 25] = > 500 nM
3. C=CC(=O)N1CCN(c2nc(OC[C@@H]3CCCN3C)nc3c2CCCN(c2c(C)ccc4ccccc24)C3)C[C@@H]1CC#N [Example 3] = ≤ 500 nM
4. C=CC(=O)N1CCN(c2nc(OC[C@@H]3CCCN3C)nc3c2CCCN(c2c(C)ccc4[nH]ncc24)C3)C[C@@H]1CC#N [Example 19] = > 500 nM

query: // IC50 lookup, key: C=C(F)C(=O)N1CCN(c2nc(OC[C@@H]3CCCN3C)nc3c2CCCN(c2c(C)ccc4[nH]ncc24)C3)C[C@@H]1CC#N [Example 20]
result: > 500 nM

query: // IC50 lookup, key: C=CC(=O)N1CCN(c2nc(OC[C@@H]3CCCN3C)nc3c2CCCN(c2cccc4cccc(C(F)(F)F)c24)C3)C[C@@H]1CC#N [Example 21]
result: > 500 nM

query: // IC50 lookup, key: C=CC(=O)N1CCN(c2nc(OC[C@@H]3CCCN3C)nc3c2CCCN(c2cccc4cccc(C)c24)C3)C[C@@H]1CC#N [Example 1]
result: ≤ 500 nM

query: // IC50 lookup, key: C=CC(=O)N1CCN(c2nc(OC[C@@H]3CCCN3C)nc3c2CCCN(c2ccccc2C)C3)C[C@@H]1CC#N [Example 4]
result: > 500 nM

query: // IC50 lookup, key: C=CC(=O)N1CCN(c2nc(OC[C@@H]3CCCN3C)nc3c2CCCN(c2cccc(C(C)C)c2)C3)C[C@@H]1CC#N [Example 8]
result: > 500 nM

query: // IC50 lookup, key: C=C(F)C(=O)N1CCN(c2ncnc3c2CCCN(c2cccc4cccc(C)c24)C3)C[C@@H]1CC#N [Example 23]
result: > 500 nM

Reference for the values: patent US20210230170A1
